- Tgt: T1, human PACAP38 (human, not fully specified; C-terminal lysine is amidated; N-terminal or C-terminal biotin in the HTRF and PC-12 cell binding assays)
- T1 peptide: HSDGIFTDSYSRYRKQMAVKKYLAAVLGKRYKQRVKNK
- Test Details: cell-based or functional assay
Each item that follows carries a reported IC50, 0.1 nM PACAP38-induced PAC1-R mediated cAMP increase.
Supply the numeric figure in nM, leaving out any unit text.

anti-PACAP antibody Ab9.H (antibody, human IgG1, kappa, N297A, V domains shown, humanized form of Ab9, full length) VH: EVQLVESGGGLVQPGGSLRLSCAASGFTVSRDYWICWVRQAPGKGLEWIGCISAGGGSTDYANWVNGRFTISRDISKNTGYLQMNSLRAEDTAVYYCAGNLEIWGQGTLVTVSS VL: DIQMTQSPSTLSASVGDRVTITCQSSPSIYSGAFLSWYQQKPGKAPKFLIYEASKLASGVPSRFSGSGSGTEFTLTISSLQPDDFATYYCLGFYDCSSVDCHAFGGGTKVEIKR	0.278
anti-PACAP antibody Ab8 (antibody, human IgG1, kappa, N297A, V domains shown, full-length rabbit/human chimeric antibody) VH: LEQSGGGAEGGLVKPGGSLELCCKASGFSLTTSHWMCWVRQAPGKGLNWIGCISAGSGDADYATWVDAQFTLSRDIDQNTGCLQLNSLTPADTAMYYCTINFELWGQGTLVTVSS VL: AQVLTQTPSSVSAAVGGTVTINCQSSPSVYSSYLSWFQQKPGQPPKFLIYEASKLASGVPSRFSGSGSGTQFTLTISGVQCSDAATYYCLGAYDCGRTDCHAFGGGTEVVVKR	0.0393

// next item, IC50, 0.1 nM PACAP38-induced PAC1-R mediated cAMP increase requested
Look at this binder and give its reported IC50, 0.1 nM PACAP38-induced PAC1-R mediated cAMP increase. anti-PACAP antibody Ab22 (antibody, human IgG1, kappa, N297A, V domains shown, full-length rabbit/human chimeric antibody; PACAP38 specific) VH: QEQLVESGGGLVQPEGSLTLTCTASGFDFSSNAMCWVRQAPGKGLEWIGSIYNADGKNYYAIWAKGRFTISRTSSTTVTLQMTSLTAADTATYFCARDFDLWGQGTLVTVSS VL: AAVLTQTPSPVSAAVGGTVTINCQSSQSVYDNDWLAWFQQKPGQPPKLLIYLTSTLASGVPSRFSGSGSGTQFTLTISGVQCDDAATYYCLGGYDEDGDTHVFGGGTEVVVKR
0.101
